Listed compounds paired with reported pEC50
- subject-of-test: GABAA α1β2γ2 (Homo sapiens, UniProt P14867+P47870)
- Sequence (P14867 28-456): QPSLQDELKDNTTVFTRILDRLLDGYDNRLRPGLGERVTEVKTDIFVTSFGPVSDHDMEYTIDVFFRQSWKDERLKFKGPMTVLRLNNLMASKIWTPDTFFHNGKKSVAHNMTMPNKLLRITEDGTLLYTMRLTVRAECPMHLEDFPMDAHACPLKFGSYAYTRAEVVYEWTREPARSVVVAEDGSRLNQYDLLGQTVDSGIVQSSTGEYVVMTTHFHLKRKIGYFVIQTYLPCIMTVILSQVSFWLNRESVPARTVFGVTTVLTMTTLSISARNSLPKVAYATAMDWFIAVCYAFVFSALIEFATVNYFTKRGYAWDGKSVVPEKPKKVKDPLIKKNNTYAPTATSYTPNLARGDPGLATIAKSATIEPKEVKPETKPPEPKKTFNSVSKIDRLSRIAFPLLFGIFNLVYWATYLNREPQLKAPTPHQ
- Sequence (P47870 25-512 limits assumed): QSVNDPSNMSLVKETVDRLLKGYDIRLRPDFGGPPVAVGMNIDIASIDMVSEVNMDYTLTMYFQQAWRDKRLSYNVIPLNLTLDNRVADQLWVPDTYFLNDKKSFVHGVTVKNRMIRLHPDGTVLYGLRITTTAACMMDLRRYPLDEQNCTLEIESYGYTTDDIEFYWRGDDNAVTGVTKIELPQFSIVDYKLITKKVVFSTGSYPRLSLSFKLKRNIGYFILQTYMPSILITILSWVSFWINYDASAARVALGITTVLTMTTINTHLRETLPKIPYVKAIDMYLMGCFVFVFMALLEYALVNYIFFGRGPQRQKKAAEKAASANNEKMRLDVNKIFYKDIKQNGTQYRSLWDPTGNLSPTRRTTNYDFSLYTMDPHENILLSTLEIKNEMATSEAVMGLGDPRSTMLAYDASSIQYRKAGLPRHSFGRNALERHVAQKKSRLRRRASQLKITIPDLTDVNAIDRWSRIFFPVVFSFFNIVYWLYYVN
- Sequence (P18507 40-475 partner): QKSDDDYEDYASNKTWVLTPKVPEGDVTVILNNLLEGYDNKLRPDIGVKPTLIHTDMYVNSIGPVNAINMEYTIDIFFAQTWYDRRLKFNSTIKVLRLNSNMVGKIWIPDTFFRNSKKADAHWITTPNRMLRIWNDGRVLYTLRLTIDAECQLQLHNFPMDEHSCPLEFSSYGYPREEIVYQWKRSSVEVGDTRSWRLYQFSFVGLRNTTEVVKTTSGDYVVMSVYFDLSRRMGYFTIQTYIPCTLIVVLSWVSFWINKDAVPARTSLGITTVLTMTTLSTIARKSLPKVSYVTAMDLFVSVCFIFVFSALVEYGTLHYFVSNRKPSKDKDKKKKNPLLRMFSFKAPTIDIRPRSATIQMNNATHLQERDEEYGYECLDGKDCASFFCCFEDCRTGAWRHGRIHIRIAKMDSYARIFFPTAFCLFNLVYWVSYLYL
- measurement-description: GABAA electrophysiology, PAM mode, SyncroPatch automated patch clamp
pEC50: −log10 of the molar value.
measured-attribute: pEC50

{"compound": "CC(=O)[C@H]1CC[C@H]2[C@@H]3CC[C@H]4C[C@](C)(O)CC[C@]4(C)[C@H]3CC[C@]12C [Ganaxalone, Ganaxolone, reference compound]", "recorded-number": 6.27}
{"compound": "C/C(=N\\O)[C@H]1CC[C@H]2[C@@H]3CC[C@H]4C[C@](C)(O)CC[C@]4(C)[C@H]3CC[C@]12C", "recorded-number": 5.79}
{"compound": "C/C(=N\\O)[C@H]1CC[C@H]2[C@@H]3CC[C@@H]4C[C@](C)(O)CC[C@@H]4[C@H]3CC[C@]12C", "recorded-number": 6.16}
